What follows is a collection of pIC50 values obtained with Pim 3 (Homo sapiens).
Notebook: values listed as pIC50 are -log10 of the concentration (mol/L).

For Pim 3 (Homo sapiens), provide pIC50 of "C[C@H]1CN(c2ccncc2NC(=O)c2ccc(F)c(-c3c(F)cc(CCO)cc3F)n2)C[C@@H](N)[C@@H]1O" please. 9.44

Repeat with "C[C@H]1CN(c2ccncc2NC(=O)c2ccc(F)c(-c3c(F)cc(OCC4CC4)cc3F)n2)C[C@@H](N)[C@@H]1O" 10.05

How about "C[C@H]1C[C@@H](c2ccncc2NC(=O)c2ccc(F)c(-c3c(F)cc(O[C@@H]4CCCOC4)cc3F)n2)C[C@@H](N)[C@@H]1O" ? 9.25

Same read-out for "Cc1cc(F)c(-c2nc(C(=O)Nc3cnccc3[C@@H]3C[C@H](C)C[C@H](N)C3)c(N)cc2F)c(F)c1" ? 9.46

What do we get for "C[C@@H]1C[C@H](N)C[C@H](c2ccncc2NC(=O)c2nc(-c3c(F)cc(C4COC4)cc3F)c(F)cc2N)C1" ? 9.21

Record: "C=CCOc1ccc(F)c(-c2nc(C(=O)Nc3cnccc3[C@H]3C[C@@H](N)[C@H](O)[C@@H](C)C3)ccc2F)c1F" 8.92
